Origin of measurements: PubChem BioAssay (NCI)

# Tested on: OVCAR-8 ovarian
# measurement_description: NCI tumour cell line growth inhibition, 48 h

compound	TGI
Nc1ccccc1-c1ccc([N+](=O)[O-])cc1	> 100 µM
CS(=O)(=O)OCC1OC(n2ccc(NC(=O)c3ccccc3)nc2=O)CC1OS(C)(=O)=O (stereo unspecified)	> 100 µM
Nc1nc(N)c(Cn2ccnc2)c(=O)[nH]1	> 100 µM
COc1cc2c(cc1OCCCCCOc1cc3c(cc1OC)C(=O)N1CC(F)C[C@H]1C=N3)N=C[C@@H]1CC(F)CN1C2=O (stereo partly specified)	2.06 µM
Cn1cc(C2=C(c3cccc(N)c3)C(=O)NC2=O)c2ccccc21	> 25 µM
O=C1c2cccnc2C(=O)C2C3C=CC(C3)C12 (stereo unspecified)	30 µM
CC(C)C[C@H](NC(=O)[C@H](Cc1ccccc1)NC(=O)CCc1ccccc1)B(O)O	< 0.01 µM
CCCCOc1ccc(NC(=O)n2nc(N)c3ccccc32)cc1	> 85.9 µM
N#CC(C(=O)/C(=N/NC(=O)c1ccccc1O)C(C#N)c1ccccc1)c1ccccc1 (stereo unspecified)	> 100 µM
CC1=C(/C=C/C(=O)O)C(C)(C)CCC1	> 100 µM
O=[N+]([O-])c1ccc(-c2nc3ccc([N+](=O)[O-])cc3[nH]2)cc1	> 100 µM
C#CCNC(=O)NCCCC(NC(C)=O)C(=O)NCc1ccccc1 (stereo unspecified)	> 100 µM
CC/C(=C(/c1ccc(OCCN(C)C)cc1)c1ccc(OC(=O)CCC(=O)c2c(C)[nH]c(/C=C3\N=C(c4ccc[nH]4)C=C3OC)c2C)cc1)c1ccccc1	10.3 µM
Cc1cc2c(cc1Cl)SC(c1ccccc1)C(=O)NS2(=O)=O (stereo unspecified)	> 100 µM
O=c1ccc(N=Nc2ccc([N+](=O)[O-])cc2)ccc1O	> 100 µM
Cc1cccc2cc3c(ccc4ccccc43)c[n+]12	> 100 µM
